- study system: UniProt:P11712
- Sequence (P11712 whole entry): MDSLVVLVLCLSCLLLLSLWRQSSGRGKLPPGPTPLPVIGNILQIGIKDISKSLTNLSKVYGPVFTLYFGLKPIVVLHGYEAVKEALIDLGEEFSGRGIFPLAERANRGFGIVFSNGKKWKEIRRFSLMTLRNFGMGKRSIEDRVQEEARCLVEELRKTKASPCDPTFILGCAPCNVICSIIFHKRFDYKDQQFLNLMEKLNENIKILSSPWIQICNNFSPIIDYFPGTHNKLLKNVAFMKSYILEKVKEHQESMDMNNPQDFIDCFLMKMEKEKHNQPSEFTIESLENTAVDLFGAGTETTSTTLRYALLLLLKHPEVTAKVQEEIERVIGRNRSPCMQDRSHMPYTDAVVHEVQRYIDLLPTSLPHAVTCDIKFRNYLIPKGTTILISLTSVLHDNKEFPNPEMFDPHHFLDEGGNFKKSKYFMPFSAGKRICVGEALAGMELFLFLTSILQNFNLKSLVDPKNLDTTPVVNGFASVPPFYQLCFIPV
- test: Drug activation in human Hep3B cells assessed as human CYP2C9-mediated drug metabolism-induced cytotoxicity measured as decrease in cell viability at 300 uM pre-incubated with BSO for 18 hrs followed by incubation with compound for 3 hrs in presence of NADPH measured after 24 hrs in absence of compound, CYP3A4 and NADPH by cell titer-glo luminescence assay relative to BSO alone
- recorded conditions: recombinant enzyme
property measured: FC

> print(dat)
                                   compound  property.measured  experimental.result
1  N[C@@H]1[C@H]2CN(c3nc4c(cc3F)c(=O)c(C(=O)O)cn4-c3ccc(F)cc3F)C[C@@H]12                 FC                    1
2  CCOc1ccccc1OCCN[C@H](C)Cc1ccc(OC)c(S(N)(=O)=O)c1                 FC                    1
3  CC(C)NCC(O)c1cc(O)cc(O)c1 (centres undefined)                 FC                    1
4  COC1=CC(=O)C[C@@H](C)[C@]12Oc1c(Cl)c(OC)cc(OC)c1C2=O                 FC                    1
5       Nc1ccn([C@H]2CC[C@@H](CO)O2)c(=O)n1                 FC                    1
6  CN(C)CCC(c1ccc(Cl)cc1)c1ccccn1 (centres undefined)                 FC                    1
7                   Clc1cccc(Cl)c1N=C1NCCN1                 FC                    1
8              Nc1nc(O)c2ncn(COC(CO)CO)c2n1                 FC                    1
9  O=c1n(CCCN2CCN(c3cccc(Cl)c3)CC2)nc2ccccn12                 FC                    1
